System: indomethacine-induced ulcers
Test: Effectiveness against indomethacine-induced ulcers in rats
Assay type: in vivo, rats (male)
Conditions: Rattus norvegicus, 200 mg/kg oral, 1 h before 40 mg/kg indomethacine, 24 h, read-out: Ulcer induced by indomethacine, % inhibited
experimental readout: inhibition in vivo at 200 mg/kg (%)
Report only the number, with the unit % understood.

Example entries and their recorded answers appear below.
compound | inhibition in vivo at 200 mg/kg, %
Cc1cc2c(cc1Cl)N1CCOCC1CN=C2c1ccccc1 (stereo not shown) [G] | 77
C=CCN1CCN2c3ccc(Cl)cc3C(c3ccccc3)=NCC2C1 (stereo not shown) [I] | 81
Cc1ccc2c(c1)C(c1ccccc1)=NCC1COCCN21 (stereo not shown) [C] | 68

Please find the next compound below.
Record Clc1ccc2c(c1)C(c1ccccc1)=NCC1CN(CCc3ccccc3)CCN21 (stereo not shown) [K] . Reported inhibition in vivo at 200 mg/kg: 85

The measurements presented in this section are drawn from patent US4338314A.
